- assay-summary: Compatibility study of minocycline hydrochloride with excipients (visual inspection)
- Type: physicochemical
- recorded-conditions: summary; tested after the storage for up to 3 weeks
measured-endpoint: Compatibility with Minocycline HCl

{"columns": ["compound", "Compatibility with Minocycline HCl"],
 "data": [
  ["OCCCCO [Butylene Glycol]", "No"],
  ["CCCCCCCCCCCCCCCCCCO [Stearyl alcohol]", "Yes"],
  ["CCCCCCCCCCC(CO)CCCCCCCC (stereo not drawn) [Octyl dodecanol]", "Yes"],
  ["CCO [Ethanol]", "No"],
  ["CCCCCCCCCCCCCCO [Myristyl alcohol]", "Yes"]
]}

Turning now to a further compound:
Compatibility with Minocycline HCl for C[Si]1(C)O[Si](C)(C)O[Si](C)(C)O[Si](C)(C)O[Si](C)(C)O1 [Cyclomethicone 5 NF] is Yes

* * *

- assay-summary: Doxycycline Hyclate compatibility test
- Assay type: physicochemical
- recorded-conditions: summary; tested after the storage for up to 3 weeks
measured-endpoint: Compatibility with Doxycycline Hyclate

Check out these entries, answers already filled in.
{"columns": ["molecule", "experimental-result"],
 "data": [
  ["CCCCCCCC/C=C\\CCCCCCCCO", "Yes"],
  ["CCCCCCCCCCCCCCCCCCO", "Yes"],
  ["CC(O)CO (stereo not drawn)", "No"],
  ["CC(C)CCCCCCCCCCCCCCC(=O)O", "Yes"],
  ["C[Si]1(C)O[Si](C)(C)O[Si](C)(C)O[Si](C)(C)O[Si](C)(C)O1", "Yes"]
]}

Compatibility with Doxycycline Hyclate for "CCO" is Yes

Compatibility with Doxycycline Hyclate for CO[C@H]1CO[C@H]2[C@@H]1OC[C@H]2OC [Dimethyl Isosorbide] is No

Compatibility with Doxycycline Hyclate for CC(C)OC(=O)CCCCC(=O)OC(C)C [Diisopropyl adipate] is Yes

Compatibility with Doxycycline Hyclate for "OCC(O)CO" is No

* * *

- assay-summary: Doxycycline Monohydrate compatibility test
- Assay type: physicochemical
- recorded-conditions: summary; tested after the storage for up to 3 weeks
measured-endpoint: Compatibility with Doxycycline Monohydrate

Check out these entries, answers already filled in.
{"columns": ["compound", "experimental-result"],
 "data": [
  ["OCC(O)CO [Glycerin]", "No"],
  ["CC(O)CO (centres unmarked) [Propylene glycol]", "No"],
  ["CCCCCCCCCCC(CO)CCCCCCCC (centres unmarked) [Octyl dodecanol]", "No"],
  ["C[Si]1(C)O[Si](C)(C)O[Si](C)(C)O[Si](C)(C)O[Si](C)(C)O1 [Cyclomethicone 5 NF]", "Yes"],
  ["CCO [Ethanol]", "No"]
]}

Compatibility with Doxycycline Monohydrate for CO[C@H]1CO[C@H]2[C@@H]1OC[C@H]2OC [Dimethyl Isosorbide] is No

Compatibility with Doxycycline Monohydrate for OCCCCO [Butylene Glycol] is No

Compatibility with Doxycycline Monohydrate for CC(C)OC(=O)CCCCC(=O)OC(C)C [Diisopropyl adipate] is No

* * *

- assay-summary: Doxycycline Hyclate compatibility test
- Assay type: physicochemical
- recorded-conditions: summary; tested after the storage for up to 3 weeks
measured-endpoint: Compatibility with Doxycycline Hyclate

{"columns": ["molecule", "experimental-result"],
 "data": [
  ["CCCCCCCCCCCCCCO [Myristyl alcohol]", "Yes"],
  ["OCCCCO [Butylene Glycol]", "No"],
  ["CCCCCCCCCCC(CO)CCCCCCCC (stereo not drawn) [Octyl dodecanol]", "No"]
]}
